# Measurement target: SK channel (specific binding of 125I-apamine to the membrane)
# Experimental protocol: Assay of 125I-apamine-binding inhibition (competitive binding to colon membrane fraction)
# Run parameters: guinea pig colon membrane 10 μg/mL, 125I-apamin 10 pM, 4° C., 60 minutes; read-out: 125I-apamine-binding inhibitory activity (IC50; μM)
Quantity kind: IC50 (µM)
Reply numerically in µM, unit not repeated.

Some molecules with recorded IC50:
What does the data say about its IC50? Entry: CCN1CCc2cc(OC)c(OC)cc2[C@@H]1[C@H]1C[C@H](C(=O)N2CCN(c3ncnc4c3cnn4Cc3ccncc3)CC2)CC[C@]12c1cc(OC)c(OC)cc1CCN2C(=O)CCNC (racemic) 0.05

What does the data say about its IC50? Entry: COc1cc2c(cc1OC)C1(CCC(C(=O)N3CCN(c4ncnc5c4cnn5Cc4ccccn4)CC3)CC1)N(CCCN)CC2 (stereo not shown) 0.02

What does the data say about its IC50? Entry: CCN1CCc2cc(OC)c(OC)cc2C1C1CC(C(=O)N2CCN(c3ncnc4c3nnn4C)CC2)CCC12c1cc(OC)c(OC)cc1CCN2C(=O)CCNC (stereo not shown) 0.01

***
What does the data say about its IC50? Entry: CCCn1ncc2c(N3CCN(C(=O)C4CCC5(c6cc(OC)c(OC)cc6CCN5C(=O)CCNC)C(C5c6cc(OC)c(OC)cc6CCN5CC)C4)CC3)ncnc21 (stereo not shown) 0.06
